ASSAYED SYSTEM: Estrogen Receptor ERα (Homo sapiens, UniProt P03372)
Sequence (P03372 311-547 limits assumed): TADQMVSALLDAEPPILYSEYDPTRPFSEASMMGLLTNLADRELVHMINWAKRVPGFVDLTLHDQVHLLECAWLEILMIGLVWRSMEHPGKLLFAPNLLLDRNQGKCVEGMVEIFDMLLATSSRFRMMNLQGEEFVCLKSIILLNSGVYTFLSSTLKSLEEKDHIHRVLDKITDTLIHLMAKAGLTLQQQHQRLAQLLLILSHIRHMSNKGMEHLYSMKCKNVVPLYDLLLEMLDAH
ASSAY OVERVIEW: aCYP oxidation followed by ERα-UAS-bla GripTite assay (TK-Ratio of effect)
Type: cell-based
CONDITION NOTES: Table S11; ERα; after abiotic CYP catalyst; in M
A collection of molecules and their measured EC10, after oxidation
OBSERVED PROPERTY: EC10, after oxidation

1. CC(C)c1cc(C(C)(C)c2ccc(O)c(C(C)C)c2)ccc1O ... 1.51E-05
2. Oc1ccc(Cc2ccc(O)cc2)cc1 [BPF, Bis(4-hydroxyphenyl)methane] ... 1.36E-06
3. Oc1ccc(Sc2ccc(O)cc2)cc1 ... 2.70E-06
4. CC(C)(c1ccc(O)cc1)c1ccc(O)cc1 [BPA, 4,4'-(Propane-2,2-diyl)diphenol, reference compound] ... 3.06E-07
